Every entry's value here was drawn from patent US8580556B2.

System: tetA promoter (PtetA)-lacZ reporter in E. coli KM3
Type: cell-based
Conditions: Table 6, reverse repressor hits; anhydrotetracycline
PROPERTY_MEASURED: relative β-galactosidase activity, inducer atc

molecule="L1-18: library L1 reverse repressor hit (SEQ ID NO: 1206-1213) (protein, rSuR L1-18) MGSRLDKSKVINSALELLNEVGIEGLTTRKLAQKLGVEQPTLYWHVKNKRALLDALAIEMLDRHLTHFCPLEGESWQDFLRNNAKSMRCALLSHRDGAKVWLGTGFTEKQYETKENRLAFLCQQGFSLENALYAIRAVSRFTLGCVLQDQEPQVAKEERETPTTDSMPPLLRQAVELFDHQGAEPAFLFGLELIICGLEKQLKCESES" reading=2.35
